Experiment: Therapeutic index ratio of IC50 for human HUVEC cells to IC50 for human NALM6 cells
Type: cell-based
Conditions: HUVEC cells versus NALM6 cells, read-out: Ratio IC50
METRIC_NAME: selectivity ratio

Item under review: C=C1C(=O)Oc2ccc3ccccc3c2C1C(C)C (configuration not stated) . Reported selectivity ratio?
5.6

Next, consider the following molecule.
Item under review: C=C1C(=O)Oc2cc(OC)ccc2C1C(C)C (configuration not stated) . Reported selectivity ratio?
4

###

Each entry below carries its recorded selectivity ratio.
Experiment: Therapeutic index ratio of IC50 for human HUVEC cells to IC50 for human HL60 cells
Type: cell-based
Conditions: HUVEC cells versus HL60 cells
The reply should be a number, written without any unit.

Item under review: C=C1C(=O)Oc2cc(OC)ccc2C1C(C)C (configuration not stated) . Reported selectivity ratio?
5.6

Continuing:
Item under review: C=C1C(=O)Oc2ccc3ccccc3c2C1C(C)C (configuration not stated) . Reported selectivity ratio?
5.8
